Listed molecules paired with reported IC50
Molecular target: GIPR (CHO-K1-hGIPR cells) (Homo sapiens, UniProt P48546)
Construct: host or cells: CHO-K1
Sequence (P48546 22-466): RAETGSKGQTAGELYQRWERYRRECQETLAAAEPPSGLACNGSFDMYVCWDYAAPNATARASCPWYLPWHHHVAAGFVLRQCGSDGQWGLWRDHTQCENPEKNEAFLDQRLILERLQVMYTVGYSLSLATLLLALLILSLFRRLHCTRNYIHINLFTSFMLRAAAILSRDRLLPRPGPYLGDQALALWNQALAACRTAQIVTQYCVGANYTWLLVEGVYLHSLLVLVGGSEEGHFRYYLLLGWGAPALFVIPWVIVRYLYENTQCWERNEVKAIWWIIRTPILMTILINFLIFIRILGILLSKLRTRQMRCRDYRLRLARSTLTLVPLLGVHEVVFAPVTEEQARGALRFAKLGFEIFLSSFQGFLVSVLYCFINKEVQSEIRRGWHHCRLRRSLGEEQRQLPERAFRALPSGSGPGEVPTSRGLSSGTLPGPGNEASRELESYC
Experiment: FACS binding assay
Conditions: competition with 20 nM GIP-057, 4° C., 1 hour, read-out: pIC50 Category (converted)
*1 amine or outer side, *2 acyl side, *3 side chain or, on linkers, in order; H or OH if unused. Where a SMILES comes first, the peptide text is derived from it. Bridges are numbered along the chain shown (N, C = ends). [ ]: non-standard residue; d: D form. Trp(5-Cl) = N[C@@H](Cc1c[nH]c2ccc(Cl)cc12)C(=O)O; Trp(5-OH) = N[C@@H](Cc1c[nH]c2ccc(O)cc12)C(=O)O; Pyridine(2,6-diCH2) = c1cc(C[*:1])nc(C[*:2])c1; Hyp = O=C(O)[C@@H]1C[C@@H](O)CN1; Thp = NC1(C(=O)O)CCOCC1

{"molecule": "CC[C@H](C)[C@@H]1NC(=O)[C@H](CC(C)C)NC(=O)[C@H](CCC(=O)O)NC(=O)[C@@H](NC(=O)[C@@H](CC(C)C)NC(=O)[C@H](CCC(=O)O)NC(=O)[C@@H]2C[C@@H](O)CN2C(=O)[C@H](Cc2c[nH]c3ccc(Cl)cc23)NC(=O)[C@H](Cc2c[nH]c3ccccc23)NC(=O)[C@H](CC(=O)O)NC(C)=O)CSCc2cccc(n2)CSC[C@@H](C(N)=O)NC1=O [GIP-235] (Ac-DW[Trp(5-Cl)][Hyp]E[dL]CELIC-NH2; linker 7-11 via Pyridine(2,6-diCH2))", "quantity.kind": "IC50", "reported.result": "< 10 nM"}

Recorded result, CC[C@H](C)[C@@H]1NC(=O)[C@H](CC(C)C)NC(=O)C2(CCOCC2)NC(=O)[C@@H](NC(=O)[C@@H](CC(C)C)NC(=O)[C@H](CCC(=O)O)NC(=O)[C@@H]2C[C@@H](O)CN2C(=O)[C@H](Cc2c[nH]c3ccc(Cl)cc23)NC(=O)[C@H](Cc2c[nH]c3ccc(O)cc23)NC(=O)[C@H](CC(=O)O)NC(C)=O)CSCc2cccc(n2)CSC[C@@H](C(N)=O)NC1=O [GIP-220] (Ac-D[Trp(5-OH)][Trp(5-Cl)][Hyp]E[dL]C[Thp]LIC-NH2; linker 7-11 via Pyridine(2,6-diCH2)) , IC50: < 10 nM

Values from patent US20250296971A1
